pIC50: −log10 of the molar value.
Listed here: molecules with reported pIC50 for phosphorylated PDK1 (Homo sapiens (Human)).

Look over these answered cases.
molecule	propertyLabel	testValue
O=C(NCc1cc(-c2c[nH]c3ncccc23)c[n+]([O-])c1)c1cccn(Cc2ccc(F)c(F)c2)c1=O [Cpd 165]	pIC50	> 6.30
O=C(NCc1cccc(-c2ccc3n[nH]c(=O)n3c2)c1)c1cccn(Cc2ccc(F)c(F)c2)c1=O [Cpd 216]	pIC50	5.00 to 6.30

Please examine the following record next.
Hi! What's the reported pIC50 for Cc1ccc(NC(=O)c2cccn(Cc3ccc(F)c(F)c3)c2=O)cc1-c1ccc2[nH]c(=O)[nH]c2c1 [Cpd 167] on phosphorylated PDK1 (Homo sapiens (Human))? 5.00 to 6.30
